biological target: Tyrosine-protein phosphatase non-receptor type 22 (Homo sapiens); test: PTPN22 lymphoid phosphatase activity blockers – biochemical, fluorescence intensity, uHTS (AID 1779); settings: recombinant LYP phosphatase, at 11.5 µM, stronger effect = higher value;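 further: plate controls were vehicle with enzyme for no effect and no enzyme for full effect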
About 160 (0.055%) of roughly 290,000 compounds were called active. Shown is part of a subset that was picked to be rich in actives.
Each entry below carries its reported inhibition.
Experimental endpoint: inhibition

In [3]: df
Out[3]:
                                   compound                       experimental_target  experimental_endpoint       test_result
0  Cc1cccc(OCC(O)CN2CCOCC2)c1 (stereo unspecified)  Tyrosine-protein phosphatase non-receptor type 22 (Homo sapiens)             inhibition  -8.2% (inactive)
1  CCOC(=O)CC1(NC(=O)c2cc(COc3cccc(OC)c3)on2)CCCCC1  Tyrosine-protein phosphatase non-receptor type 22 (Homo sapiens)             inhibition   4.4% (inactive)
2  Cc1cc2c(c(SCC(=O)NCc3ccc(Cl)cc3)n1)C(=O)OC2  Tyrosine-protein phosphatase non-receptor type 22 (Homo sapiens)             inhibition  -1.3% (inactive)
3  O=C(NCCc1ccccn1)C1CCN(S(=O)(=O)c2ccc(Cl)cc2)CC1  Tyrosine-protein phosphatase non-receptor type 22 (Homo sapiens)             inhibition  -6.8% (inactive)
4  Cc1ccc(S(=O)(=O)NC(=O)Nc2nnc(C3CC3)s2)cc1  Tyrosine-protein phosphatase non-receptor type 22 (Homo sapiens)             inhibition  -9.1% (inactive)
5  CC(OC(=O)c1ccc(NS(=O)(=O)c2ccc3[nH]c(=O)[nH]c3c2)cc1)C(N)=O (stereo unspecified)  Tyrosine-protein phosphatase non-receptor type 22 (Homo sapiens)             inhibition  -4.3% (inactive)
